The measured values listed here are drawn from PubChem BioAssay.

Each record here notes measured inhibition.
TEST_TARGET: PEG-3 (UniProt Q6IN02)
Sequence (Q6IN02 whole entry, looked up): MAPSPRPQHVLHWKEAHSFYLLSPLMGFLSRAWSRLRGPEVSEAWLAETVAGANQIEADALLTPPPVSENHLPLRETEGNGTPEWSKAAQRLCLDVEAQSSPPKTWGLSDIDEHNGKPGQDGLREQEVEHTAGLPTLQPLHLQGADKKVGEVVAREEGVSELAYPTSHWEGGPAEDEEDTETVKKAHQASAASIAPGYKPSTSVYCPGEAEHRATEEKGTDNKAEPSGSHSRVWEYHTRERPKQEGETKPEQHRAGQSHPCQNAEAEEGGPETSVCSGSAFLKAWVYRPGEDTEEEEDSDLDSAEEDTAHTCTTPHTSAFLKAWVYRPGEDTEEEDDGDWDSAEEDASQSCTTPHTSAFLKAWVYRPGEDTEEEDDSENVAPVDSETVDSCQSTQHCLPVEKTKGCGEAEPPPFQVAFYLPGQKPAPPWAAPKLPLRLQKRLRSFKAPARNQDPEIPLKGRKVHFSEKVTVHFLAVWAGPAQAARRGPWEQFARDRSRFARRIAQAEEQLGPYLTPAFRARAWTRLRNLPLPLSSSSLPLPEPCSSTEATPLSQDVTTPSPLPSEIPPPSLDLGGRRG
METHOD_DESCRIPTION: Peg3 promoter luciferase inhibitors, potency, dose response, cell-based, HeLa, CREF/GAPDH counter-screen panel (AID 624167)
PROTOCOL_CONDITIONS: CREF/GAPDH counter-screens; HeLa PEG-Prom luciferase reporter, overnight, run 2, dose range 1, at 100 µM (top of the series) unless noted
Form entry: value (%) — number only.

Use the examples below as a reference point.
COc1cccc2nc3c(C(=O)NCCN(C)C)cccc3cc12: 101
COc1ccc2sc3cccc(NCCN(C)C)c3c(=O)c2c1: 99.2
C[C@@H]1[C@H]2[C@@H]3CC[C@@H](C3)[C@H]2CN[C@H]1c1cn(Cc2ccccc2)c2ccccc12: 102

// lookup inhibition for COc1ccc(CC(N)c2csc(NC(=O)Nc3cc(OC)ccc3OC)n2)cc1 (centres undefined) 98.7

Repeat with `CCCCCCN1C=C/C(=C\C=C(C#N)C#N)c2ccccc21` 78.7

Repeat with `COc1cccc(/C=C2/Sc3ccc(C(=O)NCCCN4CCCC4)cc3NC2=O)c1` 99

Repeat with CC(=O)NC(c1ccc(Cl)cc1)c1ccc2cccnc2c1O (centres undefined) 88.3

Repeat with `CN(C)CCCN(C(=O)c1ccc(C(=O)c2ccccc2)cc1)c1nc2cc3c(cc2s1)OCO3` 102

Repeat with `COc1cccc(-c2sc3ccc(OC)cc3c2-c2ccc(OCCN(C)C)cc2)c1` 98.3

Repeat with `O=C(N/N=C/c1sc(N2CCOCC2)nc1-c1ccccc1)c1cccc(S(=O)(=O)N2CCCC2)c1` 53.5

Repeat with `CC1=NOC(=O)/C1=C\c1ccc(-c2ccccc2Br)o1` 98.5

Repeat with `CN1CCC(NC(=O)c2cc(-c3cccc(Br)c3)nc3ccccc23)CC1` 101
